Where do these numbers come from? They come from paper PMC9307851.

biological target: DNMT3B MTase domain WT (human, UniProt Q9UBC3 569-853); assay: ITC; 5 C; ITC: 20 mM Tris-HCl pH 7.2, 200 mM NaCl, 5% glycerol, 2 mM b-mercaptoethanol, 5 C; EMSA: 50 mM Tris-HCl pH 8.0, 25% glycerol, 8% glucose, 2 mM DTT, 0.1 mg/mL BSA, 30 min, gel in 0.5x TBE at 4 C; conditions: protein: recombinant; tags: His6-MBP removed by TEV; (only upper strand given)
READOUT_KIND: pKd
When answering, recall that pKd equals minus log10 of the concentration in mol/L, and write that number alone.

Q: What measured pKd goes with 24-mer DNA duplex (GAC)8 (dsDNA) DNA 1: GACGACGACGACGACGACGACGAC DNA 2: GTCGTCGTCGTCGTCGTCGTCGTC ?
A: 5.40
